- assay.context: pH 2.7
reported.metric: chromatographic logP
Answers are plain numbers.

Consider the worked cases shown below.
CN(O)C(=N)/C(=N\OCc1csc(N)n1)c1ccccc1 = 0.47
Cn1oc(=O)nc1/C(=N\OCc1csc(NC(=O)Cc2ccc(Cl)cc2)n1)c1ccccc1 = 3.23
Cn1oc(=O)nc1/C(=N\OCc1csc(NC(=S)Cc2ccc(Cl)cc2)n1)c1ccccc1 = 4.04
Cn1oc(=O)nc1/C(=N\OCc1csc(Br)n1)c1ccccc1 = 2.68

Take each entry in turn and give its chromatographic logP.
1. Cn1oc(=O)nc1/C(=N\OCc1csc(NC(=O)C2CCc3ccccc3O2)n1)c1ccccc1 (centres unmarked)
2. Cn1oc(=O)nc1/C(=N\OCc1csc(N)n1)c1ccccc1
3. Cn1oc(=O)nc1/C(=N/OCc1csc(NC(=S)Cc2ccc(Cl)cc2)n1)c1ccccc1
4. [H]/N=C(/C(=N\OCc1csc(NC(=O)OCCc2ccccc2)n1)c1ccccc1)N(O)CC
5. CN(O)C(=N)/C(=N\OCc1csc(Br)n1)c1ccccc1
6. COc1cccc(/C(=N/OCc2csc(NC(=O)OC3CCCCC3)n2)c2nc(=O)on2C)c1

output:
1. 3.35
2. 1.07
3. 3.85
4. 2.07
5. 1.34
6. 3.57

So, Cn1oc(=O)nc1/C(=N\OCc1csc(NC(=O)C2COc3ccccc3O2)n1)c1ccccc1 (centres unmarked) ? Its chromatographic logP was 3.11
